assay: qHTS assay to test for compound auto fluorescence at 460 nm (blue) in HepG2 cell free culture (AID 720685); settings: Cell-free culture medium, blue autofluorescence 405/460 nm; series mostly up to 91.3 µM; also: % is scaled to controls: 0 for no effect and ±100 for the full control effect
Active and inactive are the calls of the source. Calls follow the shape of the dose curve; as a rule, active = well fitted curve in the direction sought with a large enough effect in the repeat runs; inconclusive = weak or mixed curves; inactive = flat fitted curve, though single readings scatter.
READOUT_LABEL: outcome

CCCN(CCC)N=O | inactive
Clc1cccc(Cl)c1Cl | inactive
Clc1ccc(Cl)cc1 | inactive

---

assay: qHTS assay to identify small molecule that activate the aryl hydrocarbon receptor (AhR) signaling pathway - cell viability counter screen (AID 743086); conditions: HepG2-AhR-luc viability, CellTiter-Fluor, 24 h; series mostly up to 70.3 µM;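 also: HepG2 liver cells carrying the AhR DRE luciferase reporter; % is scaled to controls: 0 for no effect and ±100 for the full control effect; nearly all actives have a fitted effect of over 45% in size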
Inconclusive results are not listed. Activity calls are given as the source filed them. Calls follow the shape of the dose curve; as a rule, active = well fitted cell-killing curve with a large enough effect in the repeat runs; inconclusive = weak or mixed curves, or effect the other way; inactive = flat fitted curve, though single readings scatter.
READOUT_LABEL: outcome

A selection of reference data follows.
CC(Br)C(=O)O (stereo not drawn) | inactive
C[C@]12CC[C@H]3[C@@H](CC[C@@]45O[C@@H]4C(O)=C(C#N)C[C@]35C)[C@@H]1CC[C@@H]2O | inactive
C=CC(N)=O | inactive
COCCl | inactive
Cn1cc(-c2ccccc2)c(=O)c(-c2cccc(C(F)(F)F)c2)c1 | inactive

Problem: I am curious: what outcome value has been reported for Cc1[nH]c(=O)n(C(C)(C)C)c(=O)c1Cl ?
Solution: inactive

Problem: Which outcome reading was recorded for the molecule CC(NC(C)(C)C)C(=O)c1cccc(Cl)c1 (stereo not drawn) ?
Solution: inactive

Problem: // lookup outcome for O=[N+]([O-])c1ccc([As](=O)(O)O)cc1
Solution: inactive

---

biological target: Voltage-gated inwardly rectifying potassium channel KCNH2 (Homo sapiens) (UniProt Q12809); experiment: Human Ether-a-go-go-Related Gene (hERG) channel small molecule antagonists: fluorescence cell-based qHTS assay (AID 1671200); details: hERG-U2OS cells, FluxOR thallium flux fluorescence; series mostly up to 76.8 µM;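 also: hERG-expressing U2OS cells given a thallium stimulus after FluxOR II dye loading; % is scaled to controls: 0 for no effect and ±100 for the full control effect; nearly all actives have a fitted effect of over 50% in size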
Sequence (Q12809 whole entry, looked up): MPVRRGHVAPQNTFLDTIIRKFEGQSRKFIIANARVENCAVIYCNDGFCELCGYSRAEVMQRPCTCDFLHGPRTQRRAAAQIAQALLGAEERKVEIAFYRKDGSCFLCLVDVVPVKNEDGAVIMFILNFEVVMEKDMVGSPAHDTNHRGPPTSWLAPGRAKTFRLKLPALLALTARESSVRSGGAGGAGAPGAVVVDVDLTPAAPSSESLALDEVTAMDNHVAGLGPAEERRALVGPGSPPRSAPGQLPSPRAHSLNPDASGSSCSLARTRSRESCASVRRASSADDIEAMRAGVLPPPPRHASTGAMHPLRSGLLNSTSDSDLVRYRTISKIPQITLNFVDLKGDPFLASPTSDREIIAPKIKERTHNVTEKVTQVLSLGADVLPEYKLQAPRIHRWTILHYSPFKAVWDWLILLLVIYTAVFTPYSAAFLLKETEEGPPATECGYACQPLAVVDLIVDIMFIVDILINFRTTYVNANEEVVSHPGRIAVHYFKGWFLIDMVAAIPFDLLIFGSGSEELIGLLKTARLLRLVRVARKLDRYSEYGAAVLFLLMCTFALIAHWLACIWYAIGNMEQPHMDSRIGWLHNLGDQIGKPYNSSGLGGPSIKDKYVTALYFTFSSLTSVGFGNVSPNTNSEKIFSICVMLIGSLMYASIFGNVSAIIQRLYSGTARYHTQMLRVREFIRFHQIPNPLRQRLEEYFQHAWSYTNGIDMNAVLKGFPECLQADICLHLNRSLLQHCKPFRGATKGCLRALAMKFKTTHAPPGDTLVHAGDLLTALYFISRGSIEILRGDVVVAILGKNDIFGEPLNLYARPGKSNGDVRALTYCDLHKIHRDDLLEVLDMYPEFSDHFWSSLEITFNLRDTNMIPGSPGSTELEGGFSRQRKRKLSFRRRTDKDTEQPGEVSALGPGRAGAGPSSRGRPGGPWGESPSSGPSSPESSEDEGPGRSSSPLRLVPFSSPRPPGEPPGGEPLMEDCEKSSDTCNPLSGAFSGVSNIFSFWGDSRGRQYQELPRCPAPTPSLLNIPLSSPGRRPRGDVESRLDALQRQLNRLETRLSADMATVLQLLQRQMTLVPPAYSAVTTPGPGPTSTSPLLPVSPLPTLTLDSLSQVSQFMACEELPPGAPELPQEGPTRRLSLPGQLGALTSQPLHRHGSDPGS
Records with an inconclusive call do not appear. Calls of active or inactive are those of the source. The call rests on the fitted dose curve; in most records, active means well fitted inhibition curve with a large enough effect in the repeat runs; inconclusive means weak or mixed curves; inactive means flat fitted curve, though single readings scatter.
READOUT_LABEL: outcome

Solved entries:
O=NN1CCCCCCC1 | inactive
CCCCCCCCCl | inactive
CC(C)(C)OOC(=O)c1ccccc1 | inactive
ClCCBr | inactive
O=c1[nH]c2ccccc2c(=O)o1 | inactive

Problem: Report outcome for Cc1cccc([N+](=O)[O-])c1 please.
Solution: inactive

Problem: Dear colleague, I am looking for the recorded outcome of the following compound: CC1C=[C-]C=C1.[C-]#[O+].[C-]#[O+].[C-]#[O+].[Mn]
Solution: inactive

Problem: May I ask what outcome has been recorded for CCNc1nc(NC(C)C)nc(SC)n1 ?
Solution: inactive

---

experiment: qHTS assay to identify small molecule agonists of the NFkB signaling pathway (AID 1159509); conditions: NFkB-bla ME-180 cells, beta-lactamase FRET ratio, 5 h; series mostly up to 61 µM; also: % is scaled to controls: 0 for no effect and ±100 for the full control effect
Results filed as inconclusive are left out. Active and inactive are the calls of the source. Calls come from the whole dose curve; as a rule, active = well fitted curve in the direction sought with a large enough effect in the signal ratio in the repeat runs (not every such curve was filed as active); inconclusive = weak or mixed curves, or a change in a side signal; inactive = no such curve, though single readings can be large or run the other way; the % refers to the signal ratio.
READOUT_LABEL: outcome

Some compounds with known outcome results, for comparison:
O=c1[nH]c2ccccc2c(=O)o1 | inactive
CCN(CC)CCO | inactive
C=CCO | inactive
ClCc1cccnc1 | inactive
CC(C#N)CCC#N (centres undefined) | inactive

Problem: Recorded outcome of [O-][Cl+2]([O-])O , please.
Solution: inactive

Problem: Please look up its outcome: CCC[CH2][Sn]([Cl])([Cl])[Cl]
Solution: inactive

Problem: Look up outcome: CC(Oc1ccc(Cl)cc1Cl)C(=O)O (centres undefined)
Solution: inactive

Problem: Give the measured outcome of Nc1c(Cl)c(Cl)nc(C(=O)O)c1Cl .
Solution: inactive

---

Assay: A CellTox Green Cytotoxicity Assay to monitor cytotoxicity in HEK293 cells - 40 hour (AID 1224871); also: % is scaled to controls: 0 for no effect and ±100 for the full control effect; nearly all actives have a fitted effect of over 45% in size
Settings: CellTox Green fluorescence; series mostly up to 76.8 µM
From the text: National Center for Advancing Translational Sciences [NCATS] NIH Chemical Genomics Center [NCGC] U.S. Environmental Protection Agency [EPA] National Institutes of Environmental Health Sciences [NIEHS] National Toxicology Program [NTP] Cell-based models are critical for drug discovery. […] Viable cells produce no appreciable increases in fluorescence. Therefore, the fluorescence signal produced by the binding interaction with dead cell DNA is proportional to cytotoxicity. […]
Inconclusive results are not listed. Calls of active or inactive are those of the source. Calls come from the whole dose curve; as a rule, active = well fitted activation curve with a large enough effect in the repeat runs; inconclusive = weak or mixed curves; inactive = flat fitted curve, though single readings scatter.
READOUT_LABEL: outcome

Some entries whose results are on file:
Cc1cc(-c2cc(C)c(N)c(C)c2)cc(C)c1N | inactive
[O-][Cl+2]([O-])O | inactive
COCCl | inactive
Nc1ccc(Oc2ccc(N)cc2)cc1 | inactive
CC(C)(Cl)Cl | inactive

Proceed to the following item.
Problem: Entry CCC[CH2][Sn]([Cl])([Cl])[Cl] has what outcome?
Solution: inactive

---

assay: qHTS RealTime-Glo MT Cell Viability Assay in HepG2 cells - 0 hour (AID 1224889); details: RealTime-Glo luminescence; series mostly up to 76.8 µM; also: % is scaled to controls: 0 for no effect and ±100 for the full control effect; nearly all actives have a fitted effect of over 50% in size
Records with an inconclusive call do not appear. Calls of active or inactive are those of the source. Calls come from the whole dose curve; as a rule, active = well fitted cell-killing curve with a large enough effect in the repeat runs; inconclusive = weak or mixed curves, or effect the other way; inactive = flat fitted curve, though single readings scatter.
READOUT_LABEL: outcome

// solved cases for outcome follow
O=Cc1cccc(Oc2ccccc2)c1 | inactive
CCC12COCN1COC2 | inactive
O=NN1CCCC1 | inactive
COC(=O)NC(=S)Nc1ccccc1NC(=S)NC(=O)OC | inactive
CN=C=S | inactive
CC(C)C#N | inactive
O=NN1CCCCCCC1 | inactive
O=[N+]([O-])c1ccc(Oc2ccc(Cl)cc2Cl)cc1 | inactive

Continue with the next compound.
Problem: outcome lookup needed for CC(C)(C)OOC(C)(C)C , thanks.
Solution: inactive

---

Experiment: qHTS assay to identify small molecule agonists of the estrogen receptor beta (ER-beta) signaling pathway - cell viability counter screen (AID 1259380); also: nearly all actives have a fitted effect of over 30% in size
Conditions: ER-beta-bla HEK293T viability, CellTiter-Glo luminescence, 16 h; series mostly up to 92.4 µM
From the text: National Center for Advancing Translational Sciences [NCATS] NIH Chemical Genomics Center [NCGC] U.S. Environmental Protection Agency [EPA] National Institutes of Environmental Health Sciences [NIEHS] National Toxicology Program [NTP] U.S. Food and Drug Administration [FDA] Estrogen receptor (ER), a nuclear hormone receptor, plays an important role in development, metabolic homeostasis and reproduction. […]
Inconclusive results are not listed. Calls of active or inactive are those of the source. Calls come from the whole dose curve; as a rule, active = well fitted cell-killing curve with a large enough effect in the repeat runs; inconclusive = weak or mixed curves, or effect the other way; inactive = flat fitted curve, though single readings scatter.
Log the outcome using a class from yes (1) for active, no (0) for inactive

Problem: I would be grateful if you could indicate the recorded call for C#CCN(C)[C@H](C)Cc1ccccc1 .
Solution: no (0)

Problem: Would you mind telling me which call this test gave O=c1[nH]c(=O)[nH]c(=O)[nH]1 ?
Solution: no (0)

Problem: Record request — test call for Cn1cc(-c2ccccc2)c(=O)c(-c2cccc(C(F)(F)F)c2)c1
Solution: yes (1)

Problem: Answer briefly: the call reported for CCN(CC)c1ccccc1 in this assay.
Solution: no (0)

Problem: # outcome recorded in this test, key = CC(C)OC(=O)Nc1ccccc1
Solution: no (0)

Problem: Which outcome was entered for the compound CCOP(OCC)OCC in this test?
Solution: no (0)

Problem: # lookup: test call for BrCCBr
Solution: no (0)

Problem: # outcome recorded in this test, key = CCC[CH2][Sn]([Cl])([Cl])[Cl]
Solution: no (0)

Problem: // return assay outcome for CCCN(CCC)N=O
Solution: no (0)

Problem: I would be grateful if you could indicate the recorded call for ClCc1cccnc1 .
Solution: no (0)

Problem: In this assay, the call recorded for CC(C)C1(C)N=C(c2nc3ccccc3cc2C(=O)O)NC1=O (stereo not given) was what?
Solution: no (0)

Problem: Assay outcome for CC(C#N)CCC#N (stereo not given) : what was it?
Solution: no (0)

Problem: Returns: the outcome recorded for CCOC(=O)c1ccccc1C(=O)OCC in this assay.
Solution: no (0)

Problem: I'd appreciate the recorded outcome for COC(=O)NC(=S)Nc1ccccc1NC(=S)NC(=O)OC from this test.
Solution: no (0)

Problem: Per the records of this test, what outcome belongs to c1ccc2c(c1)Oc1ccccc1O2 ?
Solution: no (0)

---

biological target: Thyrotropin-releasing hormone receptor (Homo sapiens) (UniProt P34981); assay: qHTS assay to identify small molecule antagonists of the thyrotropin-releasing hormone receptor (TRHR) signaling pathway (AID 1346877); settings: TRHR-HEK293, TRH-induced calcium fluorescence, antagonist mode; series mostly up to 51.3 µM; also: % is scaled to controls: 0 for no effect and ±100 for the full control effect
Sequence (P34981 whole entry, looked up): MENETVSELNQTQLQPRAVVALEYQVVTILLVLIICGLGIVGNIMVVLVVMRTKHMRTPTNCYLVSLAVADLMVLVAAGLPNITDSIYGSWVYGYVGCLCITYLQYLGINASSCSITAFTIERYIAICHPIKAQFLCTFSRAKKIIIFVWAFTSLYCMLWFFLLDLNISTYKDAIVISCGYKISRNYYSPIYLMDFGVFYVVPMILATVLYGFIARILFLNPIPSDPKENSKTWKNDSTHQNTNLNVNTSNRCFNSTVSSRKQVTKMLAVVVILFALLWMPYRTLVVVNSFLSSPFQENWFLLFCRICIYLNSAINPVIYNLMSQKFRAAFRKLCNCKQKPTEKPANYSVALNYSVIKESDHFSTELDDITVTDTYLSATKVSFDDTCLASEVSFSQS
Calls of active or inactive are those of the source. Calls come from the whole dose curve; as a rule, active = well fitted inhibition curve with a large enough effect in the repeat runs (not every such curve was filed as active); inconclusive = weak or mixed curves; inactive = flat fitted curve, though single readings scatter.
READOUT_LABEL: outcome

# example entries with known answers
ClCc1cccnc1 | inactive
CON(C)C(=O)Nc1ccc(Cl)c(Cl)c1 | inactive
CCOP(=S)(OCC)SCCSCC | inactive
CN(N=O)c1ccccc1 | inactive
CCOC(=O)c1ccccc1C(=O)OCC | inactive
Nc1ccccc1C(=O)O | inactive
Nc1ccc(Cc2ccc(N)cc2)cc1 | inactive
O=c1[nH]c2ccccc2c(=O)o1 | inactive

Problem: What is its outcome for Thyrotropin-releasing hormone receptor (Homo sapiens) (UniProt P34981)? Entry: CC(C)C#N
Solution: inactive

Problem: Observed outcome on Thyrotropin-releasing hormone receptor (Homo sapiens) (UniProt P34981) for CC(Br)C(=O)O (stereo unspecified) , please.
Solution: inactive

Problem: Request body: readout outcome, system Thyrotropin-releasing hormone receptor (Homo sapiens) (UniProt P34981), query C1CN2CCN1CC2 . Return the value.
Solution: inactive

Problem: What reported outcome corresponds to C#CC(C)(C)NC(=O)c1cc(Cl)cc(Cl)c1 on Thyrotropin-releasing hormone receptor (Homo sapiens) (UniProt P34981)?
Solution: inactive

Problem: Under Thyrotropin-releasing hormone receptor (Homo sapiens) (UniProt P34981): outcome value of Nc1ccc(Br)cc1 ?
Solution: inactive
